FYI, the data here is from the supplement of paper PMC10567573.

B1: KRT15 (parent)
chain: SNFHINVEESVDGQVVSSHKREI

- Variants of: B1
- assayProcedure: protein stability index of a GFP-peptide fusion (GPS, HEK-293T) (PSI 1-6); higher = more stable;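 also: lentivirally expressed fusions sorted by FACS into six bins by GFP to DsRed ratio, PSI derived from sequencing read proportions per bin multiplied by bin number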
- details: c terminus: native
measurementKind: protein stability index
Give a plain numeric answer without units written out.

Reference set (2 entries):
>>> observedvalue("V11E")
2.36
>>> observedvalue("S1M")
1.31

get_value(item= `V7L` , readout=protein stability index) returns 1.34

Looking up `K20W` , I see its protein stability index listed as 3.4

protein stability index reported for this variant `N2R` : 1.39
